# Tested on: DU145
# Method Description: In vitro cytotoxicity, CCK-8 assay
# Format: cell-based
# Condition Label: Homo sapiens, DU-145; DU145 cells, CCK-8, mean ± SD of three trials
Quantity Kind: pIC50
Answers are plain numbers, as −log10 of the molar value.

Cc1ccc(OCCc2ccc(CN3CCN(C(c4ccccc4)c4ccccc4)CC3)cc2)cc1C [Compound 20]: 5.41
Cc1ccccc1OCCc1ccc(CN2CCN(C(c3ccccc3)c3ccccc3)CC2)cc1 [Compound 19]: 6.06
COc1ccccc1N1CCN(CC(O)COc2cccc3ccccc23)CC1 (centres unmarked) [Naftopidil, reference compound]: 4.46
FC(F)(F)c1ccc(OCCc2ccc(CN3CCN(C(c4ccccc4)c4ccccc4)CC3)cc2)cc1 [Compound 24]: 5.24
c1ccc(C(c2ccccc2)N2CCN(Cc3ccc(CCOc4ccc5c(c4)CCCC5)cc3)CC2)cc1 [Compound 18]: 4.84

Param item = c1ccc(C(c2ccccc2)N2CCN(Cc3ccc(CCOc4cccc5c4CCCC5)cc3)CC2)cc1 [Compound 17] ; retrieve measured pIC50.
5.14

* * *

Please go through the items and note down their IC50.
# System: LNCaP
# Method Description: In vitro cytotoxicity, CCK-8 assay
# Assay type: cell-based, human
# Condition Label: Homo sapiens, LNCaP, LNCaP cells, CCK-8, mean ± SD of three trials
# Method: PC-3 and WPMY-1 cells were cultured in Dulbecco’s modiffcation Eagle’s medium (DMEM, Invitrogen, Carlsbad, CA, United States) supplemented with 10% fetal bovine serum (FBS, Hyclone, Logan, UT, United States), 100 U/mL penicillin and 0.1 mg/mL streptomycin (Invitrogen). […] The proliferative capacity of cells was evaluated through the implementation of a Cell Counting Kit-8 (CCK-8) assay, supplied by Dojindo (Japan), to quantify cellular growth. […]
Give bare numbers, in µM.

Use the examples below as a reference point.
c1ccc(C(c2ccccc2)N2CCN(Cc3ccc(CCOc4cccc5ccccc45)cc3)CC2)cc1: 6.78
Cc1cccc(OCCc2ccc(CN3CCN(C(c4ccccc4)c4ccccc4)CC3)cc2)c1: 19.6
Clc1ccccc1OCCc1ccc(CN2CCN(C(c3ccccc3)c3ccccc3)CC2)cc1: 12.2
Clc1ccc(OCCc2ccc(CN3CCN(C(c4ccccc4)c4ccccc4)CC3)cc2)cc1: 16.1

Continue with the compound presented below.
Entry Cc1ccc(OCCc2ccc(CN3CCN(C(c4ccccc4)c4ccccc4)CC3)cc2)cc1 : reported IC50 = ?
9.29

* * *

# Test system: DU145
# Method Description: In vitro cytotoxicity, CCK-8 assay
# Format: cell-based
# Condition Label: Homo sapiens, DU-145; DU145 cells, CCK-8, mean ± SD of three trials
Please go through the items and note down their pIC50.
Numbers only, as −log10 of the molar value.

c1ccc(C(c2ccccc2)N2CCN(Cc3ccc(CCOc4cccc5ccccc45)cc3)CC2)cc1: 4.80
Clc1ccc(OCCc2ccc(CN3CCN(C(c4ccccc4)c4ccccc4)CC3)cc2)cc1: 4.86
N#Cc1ccc(OCCc2ccc(CN3CCN(C(c4ccccc4)c4ccccc4)CC3)cc2)cc1: 4.70
Clc1cc(Cl)cc(OCCc2ccc(CN3CCN(C(c4ccccc4)c4ccccc4)CC3)cc2)c1: 4.76
Cc1cccc(OCCc2ccc(CN3CCN(C(c4ccccc4)c4ccccc4)CC3)cc2)c1: 4.46

I'm hoping you can list pIC50 for every compound here, please.
1. Brc1ccc(OCCc2ccc(CN3CCN(C(c4ccccc4)c4ccccc4)CC3)cc2)cc1
2. Cc1cc(C)cc(OCCc2ccc(CN3CCN(C(c4ccccc4)c4ccccc4)CC3)cc2)c1

5.85
4.61

Okay, here is my list. What is pIC50 for each of these?
1. Clc1ccccc1OCCc1ccc(CN2CCN(C(c3ccccc3)c3ccccc3)CC2)cc1
2. Cc1ccc(OCCc2ccc(CN3CCN(C(c4ccccc4)c4ccccc4)CC3)cc2)cc1

[4.67, 4.86]
